# target or system: YbdB (Escherichia coli)
# Sequence (P0A8Y8 1-137): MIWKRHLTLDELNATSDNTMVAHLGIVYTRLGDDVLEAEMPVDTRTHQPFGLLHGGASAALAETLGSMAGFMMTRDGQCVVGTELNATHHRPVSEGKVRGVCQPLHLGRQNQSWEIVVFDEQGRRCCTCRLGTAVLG
# measurement notes: steady-state inhibition of 4-hydroxybenzoyl-CoA hydrolysis, direct […] nm assay
# Type: biochemical
measurement label: Ki (µM)
Provide the reading as a plain figure in µM.

Returns the measured Ki for the input compound. Input: CC(C)(COP(=O)(O)OP(=O)(O)OC[C@H]1O[C@@H](n2cnc3c(N)ncnc32)[C@H](O)[C@@H]1OP(=O)(O)O)[C@@H](O)C(=O)NCCC(=O)NCCS
210
